System: U-251
Experiment: Cytotoxicity against Homo sapiens (human) U251 assessed as cell growth at 10 uM after 48 hr by SRB assay relative to control
Type: functional
Conditions: U-251, 48 h, read-out: Activity
metric-name: growth at 10 µM (%)

1. Oc1c(-c2nnc(-c3ccc(Cl)cc3)o2)sc2nnc(-c3ccccc3)c(-c3ccccc3)c12 :: 32.6
2. Oc1c(-c2n[nH]c(=S)o2)sc2nnc(-c3ccccc3)c(-c3ccccc3)c12 :: 106
3. CC1=NN(C(=O)c2sc3nnc(-c4ccccc4)c(-c4ccccc4)c3c2O)C(=O)C1 :: 71.7
